STUDY SYSTEM: anti-ALFA VHH
Sequence (VHH, as listed by the source): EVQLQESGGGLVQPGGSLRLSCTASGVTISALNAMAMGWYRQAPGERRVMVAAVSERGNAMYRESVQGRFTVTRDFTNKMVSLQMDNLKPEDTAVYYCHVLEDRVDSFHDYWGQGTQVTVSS
MEASUREMENT DESCRIPTION: dose-response curve fit (log(agonist) vs. response, variable slope), FIG. 2; assay format not described
Bridge positions count the residues as written; N and C are the ends.

BINDER: Ac-SRLEEELRRRLTE-NH2 (Linear ALFA tag; also called SD15197) [Ac-Ser-Arg-Leu-Glu-Glu-Glu-Leu-Arg-Arg-Arg-Leu-Thr-Glu-NH2]
Span: 1.29
--
BINDER: Ac-SRLEEELRKRLTE-NH2 (lactam 9-13; SMILES CC(=O)N[C@@H](CO)C(=O)N[C@@H](CCCNC(=N)N)C(=O)N[C@@H](CC(C)C)C(=O)N[C@@H](CCC(=O)O)C(=O)N[C@@H](CCC(=O)O)C(=O)N[C@@H](CCC(=O)O)C(=O)N[C@@H](CC(C)C)C(=O)N[C@@H](CCCNC(=N)N)C(=O)N[C@H]1CCCCNC(=O)CC[C@@H](C(N)=O)NC(=O)[C@H]([C@@H](C)O)NC(=O)[C@H](CC(C)C)NC(=O)[C@H](CCCNC(=N)N)NC1=O, Cyclic ALFA tag; also called SD15193) [Ac-Ser-Arg-Leu-Glu-Glu-Glu-Leu-Arg-(cyclo9)Lys-Arg-Leu-Thr-(cyclo13)Glu-NH2]
Span: 1.29

// data source = patent US20250154202A1
